- target-desc: hGIPR (Homo sapiens)
- Sequence (P48546 22-466): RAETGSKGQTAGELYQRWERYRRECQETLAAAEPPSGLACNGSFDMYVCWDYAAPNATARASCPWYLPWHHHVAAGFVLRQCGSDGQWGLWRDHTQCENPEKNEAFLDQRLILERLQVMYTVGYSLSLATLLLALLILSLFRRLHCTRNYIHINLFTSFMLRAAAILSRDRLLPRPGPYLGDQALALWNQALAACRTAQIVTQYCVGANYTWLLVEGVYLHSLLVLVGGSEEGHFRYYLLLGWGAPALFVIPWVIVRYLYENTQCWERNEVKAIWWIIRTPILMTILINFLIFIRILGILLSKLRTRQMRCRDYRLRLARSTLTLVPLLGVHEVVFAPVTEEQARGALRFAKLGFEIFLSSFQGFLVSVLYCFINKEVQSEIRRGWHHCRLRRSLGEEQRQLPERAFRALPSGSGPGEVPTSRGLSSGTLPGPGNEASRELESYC
- assay: Functional cAMP activation in the presence of 0.1% casein (no HSA);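 also: intracellular cAMP rise after 30 min at 37 °C read by HTRF against a standard curve, scaled between buffer alone (0%) and top control ligand concentration (100%), four-parameter fit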
- Type: cell-based
- condition-summary: in the presence of 0.1% casein (no HSA); geometric mean; read-out: Relative cAMP EC50, hGIPR
Starred links: 1 amine or outer side, 2 acyl side, 3 side chain; linkers in the order of their positions; H or OH if unused. Non-standard residues stand in square brackets, D forms with d. Groups on a side chain read outwards from the residue. No end group written: not given here. *: point of attachment. C20 diacid = O=C(O)CCCCCCCCCCCCCCCCCCC(=O)*; C18 diacid = O=C(O)CCCCCCCCCCCCCCCCC(=O)*; αMePhe(2-F) = C[C@](N)(Cc1ccccc1F)C(=O)O; γGlu = O=C(O)[C@H](CCC(=O)[*:2])N[*:1]; αMe4Pal = C[C@](N)(Cc1ccncc1)C(=O)O; αMeY = C[C@](N)(Cc1ccc(O)cc1)C(=O)O; 4Pal = N[C@@H](Cc1ccncc1)C(=O)O; αMeL = CC(C)C[C@](C)(N)C(=O)O; αMeS = C[C@](N)(CO)C(=O)O; Orn = NCCC[C@H](N)C(=O)O; AEEA = NCCOCCOCC(=O)O; Aib = CC(C)(N)C(=O)O
Give measured EC50 for each item. Keep answers brief.
Numbers only, in nM.

H-Y[Aib]QGTFTSDFS[Orn][αMeL]LD[Orn]K([γGlu-γGlu-C18 diacid])AQ[Aib]AFIE[αMe4Pal]LLEGGPSSGAPPPGGSEE-NH2 [Example 1050]	0.152
H-Y[Aib]QGTFTSDYSI[αMeL]LD[Orn]QAAK([AEEA-AEEA-γGlu-C20 diacid])QFVEWLLA[Aib]GPSSGEPPPSEG-NH2 [Example 328]	0.544

For each entry beneath this line, provide reported EC50.
1. H-Y[Aib]QGT[αMePhe(2-F)]TSD[4Pal][αMeS]I[αMeL]LD[Orn]K([AEEA-γGlu-γGlu-C18 diacid])AQ[αMe4Pal]EFI[dE][αMeY]LIEGGPSSGEPPPSGGGE-NH2 [Example 1181]
2. H-Y[Aib]QGTFTSD[4Pal]SQ[αMeL]LDKK([AEEA-γGlu-C18 diacid])AQ[αMe4Pal]AFIEYLIE[Aib]GPSSGAPPPSGSGE [Example 889]

[0.0115, 0.106]

Would you mind giving EC50 for every substance in the list below?
1. H-Y[Aib]QGTFTSDFS[Orn][αMeL]LDKK([AEEA-γGlu-C18 diacid])AQ[Aib]AFIEWLLEGGTSSGAPPPSGE-NH2 [Example 175]
2. H-Y[Aib]QGTFTSD[4Pal]SR[αMeL]LDKK([AEEA-AEEA-γGlu-C18 diacid])AQ[αMe4Pal]AFIEYLIE[Aib]GPSSGAPPPSGS-NH2 [Example 815]

1: 0.218; 2: 0.181
